assay: Aqueous solubility; type: physicochemical; conditions: aqueous medium, aqueous buffer, low pH; read-out: aqueous solubility at low pH

{"Compound": "CNC(=O)c1cc(Oc2ccc3nc(N[C@@H]4CCCC[C@H]4O)sc3c2)ccn1 [Form A]", "solubility": "> 20 mg/mL"}

----------
experiment: Aqueous solubility; type: physicochemical; conditions: aqueous medium, aqueous buffer, neutral pH; read-out: aqueous solubility at neutral pH

{"Molecule": "CNC(=O)c1cc(Oc2ccc3nc(N[C@@H]4CCCC[C@H]4O)sc3c2)ccn1 [Form A]", "solubility": "~6 µg/mL"}
